- assay.system: T1, PTHR1 on CHO-K1/Ga15/PTHR1 cells (UniProt Q03431 27-593, limits assumed)
- T1 sequence (looked up): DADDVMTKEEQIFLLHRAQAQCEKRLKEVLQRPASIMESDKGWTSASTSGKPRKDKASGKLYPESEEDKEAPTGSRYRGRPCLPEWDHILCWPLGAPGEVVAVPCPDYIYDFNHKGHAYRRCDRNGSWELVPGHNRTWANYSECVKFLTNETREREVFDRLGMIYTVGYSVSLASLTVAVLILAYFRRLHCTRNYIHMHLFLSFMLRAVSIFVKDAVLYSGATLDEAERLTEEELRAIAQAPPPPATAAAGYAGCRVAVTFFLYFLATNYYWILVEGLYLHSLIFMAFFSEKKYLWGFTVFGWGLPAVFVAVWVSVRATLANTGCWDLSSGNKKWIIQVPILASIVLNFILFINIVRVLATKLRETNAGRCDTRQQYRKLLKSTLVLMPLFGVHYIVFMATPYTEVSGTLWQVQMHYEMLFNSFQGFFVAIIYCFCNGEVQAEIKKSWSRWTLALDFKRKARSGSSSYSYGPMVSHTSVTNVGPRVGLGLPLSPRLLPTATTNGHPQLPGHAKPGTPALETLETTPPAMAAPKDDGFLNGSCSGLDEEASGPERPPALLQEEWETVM
- test.summary: cell-based or functional assay
Catalogue of binders with associated cAMP accumulation (HTRF): -log10EC50

Use the examples below as a reference point.
1. GVAELQLMHDLAKIRAEYELREMLLRLLEEIF [R2-1]: -7.02 -log10EC50 (as headed)
2. GVAELQLMHFRALLRAEYELREMLLRLLEEIF [R2-7]: -1.58 -log10EC50 (as headed)
3. AVAEIQLMHQRAKWGLDLELAVKLQEILKDVL [R2-28]: -7.03 -log10EC50 (as headed)
4. AVAEIQLMHQRAKWEIQEIGIKITLELLKEYI [R2-37]: -9.09 -log10EC50 (as headed)
5. AVAEIQLMHQRAKWGVELQLKVDLRRILEDVY [R2-35]: -8.01 -log10EC50 (as headed)

Bench note: what cAMP accumulation (HTRF): -log10EC50 did GVAEIQLMVDLDIIRAEYELREMLLRLLEEIF [R2-12] show? -3.86 -log10EC50 (as headed)

Queued: LILVEQLMDLRAYLRAEYELREMLLRLLEEIF [R2-16] -4.71 -log10EC50 (as headed)

Queued: AVAEIQLMHQRAKWDLLIELVKLLHELLKEYI [R2-40] -11.2 -log10EC50 (as headed)
